Tested on: SK-MEL-28 melanoma
METHOD SUMMARY: NCI-60 one-dose screen, 48 h
CONDITION PARAMETERS: 10 µM unless noted
Description: Growth inhibition of the SK-MEL-28 human tumor cell line is measured as a screen for anti-cancer activity. Cells are grown in 96 well plates and exposed to the test compound for 48 hours. Compounds are tested at a single concentration, which is 10^-5 M for most compounds. The reported endpoint is percent growth (GI% or GIPRCNT), where numbers from 0 - 100% represent growth inhibition, and numbers from -100% - 0 represent cell death. For example, a value of 40 represents 60% growth inhibition. […]
This is part of a sample that, as a whole, favours compounds with a hit. Of some 83,000 tested, about 20% had one in any assay. Active and inactive are the calls of the source. The calls were made as follows: active = growth percent below 10; inactive = the rest.
Select the matching outcome among true = active, false = inactive

Reference set (5 entries):
{"MOLECULE": "COc1cc(/C=N/NC(=O)Cn2c(C(C)C)nc3ccccc32)ccc1O", "ASSIGNED CATEGORY": "false"}
{"MOLECULE": "O=Cc1c[nH]c2ccc(-c3csc4ccccc34)cc12", "ASSIGNED CATEGORY": "false"}
{"MOLECULE": "C=C1C(=O)O[C@H]2[C@H]1CC/C(COC(=O)C(=O)c1c[nH]c3ccc(OC)cc13)=C\\CC[C@@]1(C)O[C@@H]21", "ASSIGNED CATEGORY": "true"}
{"MOLECULE": "S=C(c1ccc2c(c1)OCO2)N1CCN(c2ccccc2Cl)CC1", "ASSIGNED CATEGORY": "false"}
{"MOLECULE": "CC/C=C\\CCC/C=C1/C(=O)C=C[C@@H]1C/C=C\\CCCC(=O)O", "ASSIGNED CATEGORY": "false"}

Kindly review the next molecule as well.
What is the recorded call for this molecule in the test? C[C@H]1[C@H]2[C@H]3CC[C@@H]4[C@@]5(C)C/C(=C/c6cccnc6)C(=O)C(C)(C)[C@@H]5CC[C@@]4(C)[C@]3(C)CC[C@]23CO[C@]1(C)[C@@H](C(=O)/C=C\c1cccnc1)C3 true

====

Tested on: K-562 leukemia
METHOD SUMMARY: NCI-60 one-dose screen, 48 h
CONDITION PARAMETERS: 10 µM unless noted
Compounds without any hit were thinned out: in the full panel of roughly 83,000, 20% have a hit. Activity calls are given as the source filed them. The calls were made as follows: active = growth percent below 10; inactive = the rest.
Use one of these outcomes when replying: true (1) (active), false (0) (inactive)

{"MOLECULE": "COc1ccc2[nH]c(O)c(/C=c3/cc4c(c(-c5cc(OC)c(OC)c(OC)c5)n3)=Nc3ccccc3-4)c2c1", "ASSIGNED CATEGORY": "false (0)"}
{"MOLECULE": "CS(=O)(=O)c1ccc(Nc2nc(N[C@H]3CCCC[C@H]3N)nc3cc[nH]c(=O)c23)cc1", "ASSIGNED CATEGORY": "false (0)"}
{"MOLECULE": "N#CC1=C(c2ccc(Br)cc2)NC(SCC(=O)c2ccc(Br)cc2)NC1=O (stereo not drawn)", "ASSIGNED CATEGORY": "false (0)"}
{"MOLECULE": "O=[N+]([O-])c1ccc(Sc2cccc[n+]2[O-])c2nonc12", "ASSIGNED CATEGORY": "true (1)"}
{"MOLECULE": "Cc1ccc(CCC(=O)Nc2ncc(Cc3cc(Cl)ccc3Cl)s2)o1", "ASSIGNED CATEGORY": "true (1)"}
{"MOLECULE": "NNC(=O)c1nc(N)n(-c2ccc(S(N)(=O)=O)cc2)n1", "ASSIGNED CATEGORY": "false (0)"}
{"MOLECULE": "Nc1n[nH]c2cc(F)c([C@@H]3Nc4c(F)cc5[nH]ncc5c4[C@H]4C5CCC(C5)[C@@H]34)cc12 (stereo partly drawn)", "ASSIGNED CATEGORY": "false (0)"}
{"MOLECULE": "COc1ccccc1N1C(=O)/C(=C/C2=Cc3ccccc3OC2)SC1=S", "ASSIGNED CATEGORY": "false (0)"}
{"MOLECULE": "COc1ccc(-c2ccc3c(c2)sc2nc(-c4ccc(F)cc4)cn23)cc1", "ASSIGNED CATEGORY": "false (0)"}
{"MOLECULE": "CCCCn1c(=O)c2c(nc(NCCc3ccc(O)c(O)c3)n2CCC)n(CCCC)c1=O", "ASSIGNED CATEGORY": "false (0)"}

Kindly provide the recorded test outcome for the following molecule: CC(=O)N1N=C(c2ccc(Nc3nc(Nc4ccc(F)cc4)nc(Nc4ccc(F)cc4)n3)cc2)CC1c1cccc([N+](=O)[O-])c1 (stereo not drawn) false (0)

Test call for this molecule, please: COc1cc(/C=C/C(=O)c2cccc(-n3cc(-c4ccccc4)[nH]c3=O)c2)ccc1O false (0)

Data origin, for the record: PubChem BioAssay (NCI)
